target: Histone-lysine N-methyltransferase EHMT2 (Homo sapiens) (UniProt Q96KQ7); experiment: qHTS Assay for Inhibitors of Histone Lysine Methyltransferase G9a; settings: G9a H3K9 monomethylation, AlphaScreen, 2 h; series mostly up to 59 µM; note: nearly all actives have a fitted effect of over 75% in size
Sequence (Q96KQ7 913-1193 limits assumed): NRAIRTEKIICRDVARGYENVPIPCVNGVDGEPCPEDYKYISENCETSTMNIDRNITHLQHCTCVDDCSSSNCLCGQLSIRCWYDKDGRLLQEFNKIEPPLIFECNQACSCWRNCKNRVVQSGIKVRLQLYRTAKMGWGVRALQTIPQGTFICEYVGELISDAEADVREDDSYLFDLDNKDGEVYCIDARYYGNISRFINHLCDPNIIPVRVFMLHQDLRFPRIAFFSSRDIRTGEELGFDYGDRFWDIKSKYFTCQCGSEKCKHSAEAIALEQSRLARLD
About 31,000 (8.9%) of roughly 350,000 compounds were called active. Another 15% or so got no clear call; they are omitted. Calls come from the whole dose curve; as a rule, active = well fitted inhibition curve with a large enough effect; inconclusive = small, poorly fitted or top-dose-only effect; inactive = no such curve, though single readings can be large or run the other way. Many of the other results were omitted from the sample, so actives are more common in it than they were.
Bench note: report the call from active, inactive

Problem: Hi, sorry to bother you, what did the test record for CC(CC(=O)N1CCN(c2ccccc2)CC1)S(=O)(=O)c1ccc2c(c1)NC(=O)CS2 (centres undefined) ?
Solution: inactive

Problem: Hi, sorry to bother you, what did the test record for Cc1c(NS(=O)(=O)c2cc(C(=O)NCCc3ccc(F)cc3)cc(Cl)c2Cl)c(=O)n(-c2ccccc2)n1C ?
Solution: inactive

Problem: Hi, sorry to bother you, what did the test record for COc1ccc(-c2cn[nH]c2-c2ccc(OC)cc2)cc1 ?
Solution: inactive

Problem: Hi, sorry to bother you, what did the test record for CCC1=NN2C(=N)/C(=C/c3cc(C)n(-c4ccccc4)c3C)C(=O)N=C2S1 ?
Solution: inactive

Problem: Hi, sorry to bother you, what did the test record for Cc1cccc(OCCSc2nc3ccc(NC(=O)COc4ccccc4C)cc3s2)c1 ?
Solution: inactive

Problem: Hi, sorry to bother you, what did the test record for COc1ccc(-n2ncc3c2CC(C)(C)CC3NC(=O)CCc2c(C)nn(C)c2C)cc1 (centres undefined) ?
Solution: inactive

Problem: Hi, sorry to bother you, what did the test record for Cc1cccc(C)c1-n1c(C)cc(/C=C2\C(=O)NN(c3ccccc3)C2=O)c1C ?
Solution: active

Problem: Hi, sorry to bother you, what did the test record for CCC1CCCCN1C(=O)Cn1c(=O)n(CCCCCC(=O)NCc2ccccc2)c(=O)c2sccc21 (centres undefined) ?
Solution: inactive

Problem: Hi, sorry to bother you, what did the test record for CCOC(=O)c1ccc(NC(=O)c2ccc(NC(=O)C3CCCO3)cc2)cc1 (centres undefined) ?
Solution: inactive

---

biological target: Histone-lysine N-methyltransferase EHMT2 (Homo sapiens); assay: qHTS Assay for Inhibitors of Histone Lysine Methyltransferase G9a; conditions: G9a H3K9 monomethylation, AlphaScreen, 2 h; series mostly up to 59 µM; note: nearly all actives have a fitted effect of over 75% in size
Out of some 350,000 compounds screened, about 31,000 (8.9%) were called active. About 15% were inconclusive and are not listed. Calls come from the whole dose curve; as a rule, active = well fitted inhibition curve with a large enough effect; inconclusive = small, poorly fitted or top-dose-only effect; inactive = no such curve, though single readings can be large or run the other way. The list comes from a sample in which actives are over-represented; it also holds close analogues and randomly drawn compounds.
Bench note: report the call from yes (1) (active), no (0) (inactive)

Problem: Hi, sorry to bother you, what did the test record for CCCCNC(=O)N(O)C1N(/N=C/c2ccccc2O)C(=S)SC1(C)C (configuration not stated) ?
Solution: no (0)

Problem: Hi, sorry to bother you, what did the test record for O=C(CCOc1ccccc1)N(Cc1cccnc1)c1nc2ccc(Cl)cc2s1 ?
Solution: no (0)

Problem: Hi, sorry to bother you, what did the test record for CCOCCCn1c(SCC(=O)Nc2ccc(CC)cc2)nc2ccccc2c1=O ?
Solution: no (0)

Problem: Hi, sorry to bother you, what did the test record for COc1cc(OC)c(NC(=O)c2cc(S(=O)(=O)N3CCCC3)cn2C)cc1Cl ?
Solution: no (0)

Problem: Hi, sorry to bother you, what did the test record for Cc1ccc(CNC(=O)CCc2c(C)nc3c(c(C)nn3-c3ccccc3)c2C)cc1 ?
Solution: no (0)

Problem: Hi, sorry to bother you, what did the test record for CN(C)c1ccc(-c2nnc(-c3cccnc3)o2)cc1 ?
Solution: no (0)

Problem: Hi, sorry to bother you, what did the test record for C=CCn1c(CNC(=O)c2ccco2)nnc1SCC(=O)c1ccc(OC)cc1 ?
Solution: no (0)

Problem: Hi, sorry to bother you, what did the test record for CCCOC(=O)Nc1sc2c(c1C(=O)OCC)CCC2 ?
Solution: no (0)

Problem: Hi, sorry to bother you, what did the test record for COc1ccc(N(C)S(=O)(=O)c2ccc3c(c2)CC(C)N3C(=O)C2CC2)c(OC)c1 (configuration not stated) ?
Solution: no (0)

Problem: Hi, sorry to bother you, what did the test record for COc1ccc(C(=O)CSc2nnc(COc3ccccc3)n2Cc2ccco2)cc1 ?
Solution: yes (1)

Problem: Hi, sorry to bother you, what did the test record for COC(=O)/C(NC(C)=O)=C(\C)c1ccc(Cl)cc1 ?
Solution: no (0)

Problem: Hi, sorry to bother you, what did the test record for COC(=O)C(=Nc1ccccc1)/C(C(=O)C(=O)N(C)c1ccccc1)=C(\O)c1ccc(Cl)cc1 ?
Solution: yes (1)

Problem: Hi, sorry to bother you, what did the test record for CCOC(=O)Cc1csc(NC(=O)CSc2nnc(-c3cccnc3)n2Cc2ccco2)n1 ?
Solution: no (0)

Problem: Hi, sorry to bother you, what did the test record for O=C(CSc1nnc(-c2cccnc2)n1Cc1ccco1)c1ccc(Cl)c(Cl)c1 ?
Solution: yes (1)

Problem: Hi, sorry to bother you, what did the test record for CCOC(=O)c1c(NC(=O)CSc2cn(CC)c3ccccc23)sc2c1CCC2 ?
Solution: yes (1)

Problem: Hi, sorry to bother you, what did the test record for COc1ccc(-n2cnc3cc(C(=O)NC4CCCC4)ccc32)cc1 ?
Solution: no (0)

Problem: Hi, sorry to bother you, what did the test record for COc1ccc2c(CNCCc3ccccc3C)c(C(=O)O)n(Cc3ccccc3C)c2c1 ?
Solution: no (0)

Problem: Hi, sorry to bother you, what did the test record for O=C(c1ccncc1)N1CCN(S(=O)(=O)c2cc(C(F)(F)F)cc(C(F)(F)F)c2)CC1 ?
Solution: no (0)

Problem: Hi, sorry to bother you, what did the test record for CCOC(=O)c1c(NC(=O)/C(C#N)=C/c2ccccc2)sc2c1CCC2 ?
Solution: no (0)

Problem: Hi, sorry to bother you, what did the test record for COc1ccc(Nc2nc(Cl)nc(NCc3ccco3)n2)cc1 ?
Solution: no (0)

Problem: Hi, sorry to bother you, what did the test record for CCOC(=O)c1c(NC(=S)NC)sc2c1CCCC2 ?
Solution: yes (1)

Problem: Hi, sorry to bother you, what did the test record for CCOC(=O)c1c(NC(=S)Nc2ccccc2)sc2c1CCN(C)C2 ?
Solution: yes (1)

---

target: Histone-lysine N-methyltransferase EHMT2 (Homo sapiens) (UniProt Q96KQ7); experiment: qHTS Assay for Inhibitors of Histone Lysine Methyltransferase G9a; conditions: G9a H3K9 monomethylation, AlphaScreen, 2 h; series mostly up to 59 µM; note: nearly all actives have a fitted effect of over 75% in size
In all, about 350,000 compounds went through this assay and about 31,000 (8.9%) were called active. Not shown: some 15% with an inconclusive outcome. The call rests on the fitted dose curve; in most records, active means well fitted inhibition curve with a large enough effect; inconclusive means small, poorly fitted or top-dose-only effect; inactive means no such curve, though single readings can be large or run the other way. For the sample, actives were picked, then their nearest neighbours and some compounds at random.
Bench note: report the call from active, inactive

Problem: Hi, sorry to bother you, what did the test record for COc1cccc(CNC(=O)CCCC(=O)Nc2cccc([N+](=O)[O-])c2)c1 ?
Solution: inactive

Problem: Hi, sorry to bother you, what did the test record for C=CCOC(=O)C1=C(C)NC(C)=C(C(=O)OCC=C)C1c1cccs1 ?
Solution: inactive

Problem: Hi, sorry to bother you, what did the test record for CCc1ccc(-c2cc3c(=O)n(CC(=O)NCCCN4CCN(Cc5ccccc5)CC4)nc(C)n3n2)cc1 ?
Solution: inactive

Problem: Hi, sorry to bother you, what did the test record for COc1ccc(Cc2nnc(SCC(=O)N(c3ccccc3)C(C)C)n(N)c2=O)cc1 ?
Solution: inactive

Problem: Hi, sorry to bother you, what did the test record for CC1=C(C(=O)Nc2ccccc2)C(c2cccs2)C(C#N)=C(SCC#N)N1 (configuration not stated) ?
Solution: active

Problem: Hi, sorry to bother you, what did the test record for COc1cc(Nc2nc3ccc(Cl)cc3n3cnnc23)cc(OC)c1OC ?
Solution: inactive

Problem: Hi, sorry to bother you, what did the test record for FC(F)(F)c1ccc(-n2cn[nH]c2=S)cc1 ?
Solution: active

Problem: Hi, sorry to bother you, what did the test record for Nc1ncnc2c1c(I)cn2[C@@H]1C[C@H](N)[C@@H](O)[C@H]1O ?
Solution: active

Problem: Hi, sorry to bother you, what did the test record for C#CCOCCOCCOCCNc1nc(N2CCN(C(=O)[C@H](C(C)C)n3cc(CCO)nn3)CC2)nc(N2CCN(C(=O)[C@H]([C@@H](C)CC)n3cc(CCCN=C(N)N)nn3)CC2)n1 ?
Solution: active

Problem: Hi, sorry to bother you, what did the test record for Cc1ccc(N2C(=O)CC(Nc3cccc4ccccc34)C2=O)cc1 (configuration not stated) ?
Solution: active

Problem: Hi, sorry to bother you, what did the test record for COc1ccc(CNC(=O)c2cc3c(s2)-c2ccccc2OC3)cc1 ?
Solution: inactive

Problem: Hi, sorry to bother you, what did the test record for CCOc1ccccc1NC(=O)CSc1ncc(S(=O)(=O)c2ccc(C(C)(C)C)cc2)c(=O)[nH]1 ?
Solution: inactive

Problem: Hi, sorry to bother you, what did the test record for O=C(CN1CCCSc2ccccc21)N1CCN(S(=O)(=O)c2ccccc2)CC1 ?
Solution: active

Problem: Hi, sorry to bother you, what did the test record for CCOc1cc(/C=C2\SC(N3CCCC(C)C3)=NC2=O)ccc1O (configuration not stated) ?
Solution: inactive

Problem: Hi, sorry to bother you, what did the test record for CCCC(=O)N=c1sc2cccc(F)c2n1C ?
Solution: active

Problem: Hi, sorry to bother you, what did the test record for O=C(Cc1ccccc1)NNC1CC(=O)N(c2ccc(Br)cc2)C1=O (configuration not stated) ?
Solution: inactive

Problem: Hi, sorry to bother you, what did the test record for COc1cccc(N2CC(NC(=O)/C=C\c3ccccc3)CC2=O)c1 (configuration not stated) ?
Solution: inactive

Problem: Hi, sorry to bother you, what did the test record for COCCNc1cc(-c2ccccc2)nc2cc(-c3cccc(F)c3)nn12 ?
Solution: inactive

Problem: Hi, sorry to bother you, what did the test record for Cc1ccc(S(=O)(=O)NNC(=O)/C=C/c2cccc(F)c2)cc1 ?
Solution: inactive

Problem: Hi, sorry to bother you, what did the test record for COC(=O)c1ccc(NCC(=O)N2CCCCCC2)cc1 ?
Solution: inactive

Problem: Hi, sorry to bother you, what did the test record for N#Cc1cccc(NC(=O)CN2CCCCCC2)c1 ?
Solution: inactive

Problem: Hi, sorry to bother you, what did the test record for CNc1ccc(SC#N)cc1 ?
Solution: active
